system name: Full length human recombinant HDAC8 protein (Homo sapiens)
Construct: Full length human recombinant HDAC8 protein was expressed in baculoviral system; made in house
Sequence (Q9BY41 whole entry): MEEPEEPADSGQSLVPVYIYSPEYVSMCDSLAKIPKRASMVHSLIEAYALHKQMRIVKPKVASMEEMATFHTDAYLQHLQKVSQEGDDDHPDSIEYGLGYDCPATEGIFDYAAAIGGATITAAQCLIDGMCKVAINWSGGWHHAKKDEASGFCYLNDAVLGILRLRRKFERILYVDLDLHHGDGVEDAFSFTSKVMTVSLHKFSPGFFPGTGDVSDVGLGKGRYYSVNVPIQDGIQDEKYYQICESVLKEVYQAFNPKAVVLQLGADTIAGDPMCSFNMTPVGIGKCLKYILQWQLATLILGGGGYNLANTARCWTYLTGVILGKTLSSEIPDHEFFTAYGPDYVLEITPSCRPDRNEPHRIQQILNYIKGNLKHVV
assay notes: In vitro histone deacetylase assay: enzymatic HDAC8 electrophoretic mobility shift assay
Format: biochemical
test parameters: electrophoretic mobility shift assay; enzyme 1 nM; 2 μM fluorescently labeled peptide substrate RHKK(Ac)-NH2; 25° C.; 12 concentrations; read-out: HDAC8 IC50
Description: The enzymatic HDAC8 assay was performed using electrophoretic mobility shift assay. Full length human recombinant HDAC8 protein was expressed in baculoviral system and purified by affinity chromatography. […] The terminated assay plates were analyzed on LabChip® 3000 microfluidic electrophoresis instrument (Perkin Elmer/Caliper Life Sciences). The fluorescence intensity of the electrophoretically separated de-acetylated product and substrate peptide was measured. […]
// reported IC50 for each item listed

{"smiles": "O=C(NO)c1ccc2c(c1)N(Cc1cccc(F)c1)C(=O)CO2", "IC50": "25 to 100 nM"}
{"smiles": "COc1ccc(C(=O)N2CCCc3ccc(C(=O)NO)cc32)cc1", "IC50": "100 to 1000 nM"}
{"smiles": "CS(=O)(=O)c1ccccc1CN1CCOc2ccc(C(=O)NO)cc21", "IC50": "100 to 1000 nM"}
{"smiles": "O=C(NO)c1ccc2c(c1)N(Cc1csc(-c3ccccc3)n1)C(=O)CO2", "IC50": "25 to 100 nM"}
{"smiles": "COc1ccc(CN2C(=O)COc3ccc(C(=O)NO)cc32)c(C(F)(F)F)c1", "IC50": "100 to 1000 nM"}

Which IC50 is reported for this compound? O=C(NO)c1ccc2c(c1)N(CC(=O)N1CCOCC1)CCO2
> 1000 nM

Next compound up: O=C(NO)c1ccc2c(c1)N(CC1CCOCC1)C(=O)CO2
100 to 1000 nM

Next compound up: COc1ccc(CN2C(=O)C(C)(C)Oc3ccc(C(=O)NO)cc32)c(Cl)c1
25 to 100 nM

Next compound up: O=C(NO)c1ccc2c(c1)N(Cc1nc3ccccc3o1)C(=O)CO2
< 25 nM
